Attribution: ChEMBL document CHEMBL4219099

Experiment: AUC (0 to t) in Sprague-Dawley rat plasma at 10 mg/kg, po by liquid chromatography-tandem mass spectrometry analysis
Assay type: ADME, organism-based
Endpoint Label: AUC(0-t) (ng·h/mL)
Write the number in ng·h/mL without appending the unit.

For the molecule CC(C)OC(=O)N1CCC2(CC1)CC(CCCOc1ccc(C(=O)NCC(N)=O)c(F)c1)C2 , what AUC(0-t) is on record? 9510

###

Assay: Aqueous solubility of the compound in pH 6.8 phosphate buffer after 24 hrs by HPLC analysis
Type: physicochemical
Endpoint Label: solubility at 24 h

Known solubility at 24 h results, listed for orientation:
CC(C)OC(=O)N1CCC2(CC1)CC(CCCOc1ccc(C(=O)N3CC(O)C3)c(F)c1)C2 : 1.89 µg/mL
CC(C)(C)OC(=O)N1CCC2(CC1)CC(CCCOc1ccc(S(C)(=O)=O)cc1)C2 : < 0.13 µg/mL
CS(=O)(=O)c1ccc(OCCCC2CC3(CCN(C(=O)OC4CCCC4)CC3)C2)cc1F : < 0.14 µg/mL

Attention now turns to another entry.
For the molecule CC1(OC(=O)N2CCC3(CC2)CC(CCCOc2ccc(S(C)(=O)=O)c(F)c2)C3)CC1 , what solubility at 24 h is on record? < 0.15 µg/mL

###

Target: Glucose-dependent insulinotropic receptor (Homo sapiens, UniProt Q8TDV5)
Sequence (Q8TDV5 whole entry): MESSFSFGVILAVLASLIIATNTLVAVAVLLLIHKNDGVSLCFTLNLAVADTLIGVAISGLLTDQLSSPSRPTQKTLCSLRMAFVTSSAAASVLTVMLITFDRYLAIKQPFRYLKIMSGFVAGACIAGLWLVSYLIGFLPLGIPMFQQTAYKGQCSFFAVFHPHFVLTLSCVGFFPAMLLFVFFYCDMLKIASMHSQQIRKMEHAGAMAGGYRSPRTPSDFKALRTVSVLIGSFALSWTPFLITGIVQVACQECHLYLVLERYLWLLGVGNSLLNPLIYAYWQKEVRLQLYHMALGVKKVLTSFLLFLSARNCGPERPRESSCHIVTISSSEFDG
Assay: Agonist activity at human GPR119 expressed in Flp-In-T-Rex-HEK293 cells assessed as increase in intracellular cAMP level after 30 mins by HTRF assay
One threshold, 0.05 µM, splits the recorded EC50 values: lower ones are Yes, equal or higher ones are No.

See these solved cases before continuing.
CS(=O)(=O)c1ccc(OCCCC2CC3(CCN(C(=O)OC4CCCC4)CC3)C2)cc1F : Yes
CCc1cnc(N2CCC3(CC2)CC(CCCOc2ccc(S(C)(=O)=O)c(F)c2)C3)nc1 : No
CC(C)OC(=O)N1CCC2(CC1)CC(CCCOc1ccc(C(N)=O)c(F)c1)C2 : No
CC(C)(C)OC(=O)N1CCC2(CC1)CC(CCCOc1ccc(S(C)(=O)=O)c(F)c1)C2 : Yes

For CC(C)OC(=O)N1CCC2(CC1)CC(CCCOc1ccc(S(C)(=O)=O)cc1)C2 , is the recorded EC50 below the cut-off of 0.05 µM? No

For CC(C)(C)OC(=O)N1CCC2(CC1)CC(CCOc1ccc(S(C)(=O)=O)cc1)C2 , is the recorded EC50 below the cut-off of 0.05 µM? No

For CC(C)(C)OC(=O)N1CCC2(CC1)CC2CCCOc1ccc(S(C)(=O)=O)cc1 (configuration not stated) , is the recorded EC50 below the cut-off of 0.05 µM? No

For CC(C)(C)OC(=O)N1CCC2(CCC(CCOc3ccc(S(C)(=O)=O)cc3)CC2)CC1 , is the recorded EC50 below the cut-off of 0.05 µM? No

For CCc1cnc(N2CCC3(CC2)CC(CCCOc2ccc(S(C)(=O)=O)cc2)C3)nc1 , is the recorded EC50 below the cut-off of 0.05 µM? Yes

For CC(C)(C)OC(=O)N1CCC2(CC1)CC2CCOc1ccc(S(C)(=O)=O)cc1 (configuration not stated) , is the recorded EC50 below the cut-off of 0.05 µM? No

For CC(C)OC(=O)N1CCC2(CC1)CC(CCCOc1ccc(C(=O)NCC(N)=O)c(F)c1)C2 , is the recorded EC50 below the cut-off of 0.05 µM? Yes

For CC(C)(C)OC(=O)N1CCC2(CC1)CC(CCCOc1ccc(S(C)(=O)=O)cc1F)C2 , is the recorded EC50 below the cut-off of 0.05 µM? Yes

###

Test: Aqueous solubility of the compound in pH 6.8 phosphate buffer after 24 hrs by HPLC analysis
Assay type: physicochemical
Endpoint Label: solubility at 24 h

Known solubility at 24 h results, listed for orientation:
CC(C)c1noc(N2CCC3(CC2)CC(CCCOc2ccc(S(C)(=O)=O)cc2)C3)n1 : < 0.13 µg/mL
CC(C)OC(=O)N1CCC2(CC1)CC(CCCOc1ccc(S(C)(=O)=O)c(F)c1)C2 : < 0.16 µg/mL

Attention now turns to another entry.
For the compound CCc1cnc(N2CCC3(CC2)CC(CCCOc2ccc(S(C)(=O)=O)cc2)C3)nc1 , what solubility at 24 h is on record? < 0.12 µg/mL

###

Target: Glucose-dependent insulinotropic receptor (Homo sapiens, UniProt Q8TDV5)
Test: Agonist activity at human GPR119 expressed in Flp-In-T-Rex-HEK293 cells assessed as increase in intracellular cAMP level after 30 mins by HTRF assay
Endpoint Label: EC50

Known EC50 results, listed for orientation:
CC(C)OC(=O)N1CCC2(CC1)CC(CCCOc1ccc(C(=O)N3CCC3)c(F)c1)C2 : 0.034 µM
CC(C)OC(=O)N1CCC2(CC1)CC(CCCOc1ccc(C(=O)N3CCCC3)c(F)c1)C2 : 0.029 µM

Attention now turns to another entry.
For the compound CC(C)(C)OC(=O)N1CCC2(CC1)CC(CCCOc1ccc(S(C)(=O)=O)cc1)C2 , what EC50 is on record? 0.014 µM
